Tested on: CCRIS mutagenicity, Ames/micronucleus/aberration tests
Assay: CCRIS mutagenicity studies
Conditions: Test System: AMES SALMONELLA TYPHIMURIUM; Strain/Indicator: TA1535; Metabolic Activation: HAMSTER, LIVER, S-9, AROCLOR 1254; Method: STANDARD PLATE
The source made the active and inactive calls. How the calls were made is not given here.
Outcome codes: active, inactive

>>> discrete_label("NCc1cccc(CN)c1")
"inactive"
>>> discrete_label("CCCCC/C=C\\C/C=C\\CCCCCCCC(=O)O")
"inactive"
>>> discrete_label("COc1ccc(N)c(OC)c1")
"inactive"
>>> discrete_label("O=C(CCc1ccc(O)cc1)c1c(O)cc(O)cc1O")
"inactive"
>>> discrete_label("C[C@H]1CCCC(=O)CCC/C=C/c2cc(O)cc(O)c2C(=O)O1")
"inactive"
>>> discrete_label("Nc1ncc([N+](=O)[O-])s1")
"inactive"
>>> discrete_label("O=C(Cl)c1ccc([N+](=O)[O-])cc1")
"inactive"
>>> discrete_label("Cc1cc(C)c(S(=O)(=O)O)cc1N=Nc1cc(S(=O)(=O)O)c2ccccc2c1O")
"inactive"
>>> discrete_label("O=C1c2ccccc2CCc2ccccc21")
"inactive"
>>> discrete_label("O=C1c2ccccc2C(=O)c2ccccc21")
"inactive"
>>> discrete_label("CC(C)CCON=O")
"active"
>>> discrete_label("COc1ccc(CN(C)N=O)cc1")
"inactive"
>>> discrete_label("C=CCc1ccc(O)cc1")
"inactive"
>>> discrete_label("N#Cc1ccccc1")
"inactive"
>>> discrete_label("COc1cc([N+](=O)[O-])ccc1N=NC(C(C)=O)C(=O)Nc1ccccc1OC (configuration not stated)")
"inactive"
>>> discrete_label("CC(=O)Nc1ccc(C(=O)CCl)cc1")
"inactive"
>>> discrete_label("O=NN1CCC[C@H]1c1cccnc1")
"active"
>>> discrete_label("CN(C)C(=O)Oc1ccc[n+](C)c1")
"inactive"
>>> discrete_label("Clc1cc(Cl)c(Cl)cc1Cl")
"inactive"
>>> discrete_label("CC(C)C1=CC2=CC[C@@H]3[C@](C)(CCC[C@@]3(C)C(=O)O)[C@H]2CC1")
"inactive"
>>> discrete_label("C=C(C)C(=O)OCCOC(=O)C(=C)C")
"inactive"
>>> discrete_label("CCCCC(CC)COC(=O)c1ccc(N(C)C)c([N+](=O)[O-])c1 (configuration not stated)")
"inactive"
>>> discrete_label("CN(Cc1ccc(C#N)cc1)N=O")
"active"
>>> discrete_label("Cc1cccc(CN(C)N=O)c1")
"active"
>>> discrete_label("CCCCC=O")
"inactive"
>>> discrete_label("CCN(N=O)c1ccccc1")
"inactive"
>>> discrete_label("Nc1ccc(N=Nc2ccc3c(c2)C(=O)/C(=N/Nc2ccc(Nc4ccc(N/N=C5/C(=O)c6cc(N=Nc7ccc(N)cc7N)ccc6C=C5S(=O)(=O)O)cc4S(=O)(=O)O)cc2)C(S(=O)(=O)O)=C3)c(N)c1")
"active"

* * *

Test system: CCRIS mutagenicity, Ames/micronucleus/aberration tests
Test: CCRIS mutagenicity studies
Settings: Test System: AMES SALMONELLA TYPHIMURIUM; Strain/Indicator: TA98; Metabolic Activation: NONE; Method: PREINCUBATION
The source made the active and inactive calls. How the calls were made is not given here.
Outcome codes: active, inactive

>>> discrete_label("CCCCCCCC(=O)Cl")
"inactive"
>>> discrete_label("CN(C)C")
"inactive"
>>> discrete_label("Nc1ccc(S(=O)(=O)O)c2ccccc12")
"inactive"
>>> discrete_label("CCCC(=O)Nc1ncnc2c1ncn2[C@@H]1O[C@@H]2COP(=O)(O)O[C@H]2[C@H]1OC(=O)CCC")
"inactive"
>>> discrete_label("CCCCCCOC(=O)c1ccccc1C(=O)OCCCCCC")
"inactive"
>>> discrete_label("CC=C(Cl)Cl")
"inactive"
>>> discrete_label("Nc1nc(-c2ccc([N+](=O)[O-])cc2)nc2c1ncn2[C@H]1C[C@H](O)[C@@H](CO)O1")
"active"
>>> discrete_label("COc1nncc2ccncc12")
"inactive"
>>> discrete_label("Cc1ccc(C(C)(C)C)cc1")
"inactive"
>>> discrete_label("C#CCNC(=NCCSCc1nc[nH]c1C)NC#N")
"inactive"
>>> discrete_label("CC(=O)Nc1ccc(S(=O)(=O)Cl)cc1")
"inactive"
>>> discrete_label("NCCCN")
"inactive"
>>> discrete_label("c1ccc2ncccc2c1")
"inactive"
>>> discrete_label("O=S(=O)(O)c1ccc(N=Nc2c(O)ccc3cc(S(=O)(=O)O)ccc23)cc1")
"inactive"
>>> discrete_label("Oc1ccc(Cc2ccccc2O)cc1")
"inactive"
>>> discrete_label("O=[N+]([O-])c1ccc(Nc2ncnc3c2ncn3-c2ccc([N+](=O)[O-])cc2)cc1")
"inactive"
>>> discrete_label("Nc1ccc(N)c(S(=O)(=O)O)c1")
"inactive"
>>> discrete_label("O=C1C=C(Nc2ccccc2)C(=O)c2ccccc21")
"inactive"
>>> discrete_label("CCC(=O)N(O)c1ccc2ccccc2c1")
"inactive"
>>> discrete_label("Nc1nc(=O)n([C@H]2C[C@H](O)[C@@H](CO)O2)cc1I")
"inactive"
>>> discrete_label("COc1ccc(N)c(C)c1")
"inactive"
>>> discrete_label("Cc1ccc(N=Nc2c(O)ccc3ccccc23)c([N+](=O)[O-])c1")
"inactive"
>>> discrete_label("O=c1oc2ccc([N+](=O)[O-])cc2c2ccccc12")
"active"
>>> discrete_label("CCOc1ccc([N+](=O)[O-])cc1")
"active"
>>> discrete_label("O=C(O)c1ccccc1Nc1cc(Cl)ccc1C(=O)O")
"inactive"
>>> discrete_label("CCCC(=O)OCc1ccccc1[N+](=O)[O-]")
"inactive"
>>> discrete_label("N#Cc1ccccc1")
"inactive"
>>> discrete_label("CCOC(=O)c1ccccc1C(=O)OCC")
"inactive"
